B1: MYBL2 (parent)
chain: FPNRTDQQCQYRWLRVLNPDLVKG

variants of: B1; test: protein stability index of a GFP-peptide fusion (GPS, HEK-293T) (PSI 1-6); higher = more stable; settings: c terminus: a fixed tail appended;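 also: lentivirally expressed fusions sorted by FACS into six bins by GFP to DsRed ratio, PSI derived from sequencing read proportions per bin multiplied by bin number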
The entries below come with measured protein stability index values attached.
TEST_READOUT: protein stability index

>>> readout_value("L21P")
2.83
>>> readout_value("N18G")
1.6
>>> readout_value("L21E")
2.43
>>> readout_value("W13P")
3.71
>>> readout_value("N18C")
2.8
>>> readout_value("L17F")
1.41
>>> readout_value("V22C")
1.79
>>> readout_value("V22W")
2.11
>>> readout_value("V22G")
2
>>> readout_value("D6Y")
1.61
>>> readout_value("V22E")
1.55
>>> readout_value("G24Q")
1.91
>>> readout_value("D6F")
2.36
>>> readout_value("R12A")
2.75
>>> readout_value("R4T")
2.02
>>> readout_value("N18Q")
1.97
>>> readout_value("D20G")
1.6
>>> readout_value("T5D")
1.98
>>> readout_value("C9P")
2.5
>>> readout_value("Y11K")
2.23
>>> readout_value("L14E")
2.28
>>> readout_value("F1M")
2.37
>>> readout_value("Q10H")
2.35
>>> readout_value("Q8C")
1.42
>>> readout_value("P2M")
1.63
>>> readout_value("W13C")
2.01
>>> readout_value("R4Q")
2.19
>>> readout_value("Y11D")
2.91
>>> readout_value("P2Y")
2.2
>>> readout_value("D6C")
1.45
>>> readout_value("L17I")
2.01
>>> readout_value("K23E")
1.89
>>> readout_value("L17S")
2.78
>>> readout_value("Y11V")
2.02
>>> readout_value("D6S")
1.89
>>> readout_value("L14N")
2.46
>>> readout_value("G24Y")
1.85
>>> readout_value("Y11I")
2.04
>>> readout_value("Q7P")
2.17
>>> readout_value("N18V")
1.61
>>> readout_value("V16F")
1.81
>>> readout_value("R12Q")
2.21
>>> readout_value("P2L")
2.62
>>> readout_value("L14I")
2.03
>>> readout_value("N18P")
1.98
>>> readout_value("Q10S")
2.48
>>> readout_value("N3T")
1.91
>>> readout_value("P19F")
1.45
>>> readout_value("L21C")
2.18
>>> readout_value("F1D")
3.24
>>> readout_value("T5M")
2.33
>>> readout_value("D20L")
1.7
>>> readout_value("Q8I")
2.01
>>> readout_value("N18I")
1.09
>>> readout_value("F1H")
2.44
>>> readout_value("L14P")
2.05
>>> readout_value("D6M")
1.27
>>> readout_value("D6P")
1.81
>>> readout_value("C9S")
2.45
>>> readout_value("K23M")
1.5
>>> readout_value("V22L")
2.21
>>> readout_value("R15D")
2.48
>>> readout_value("L17H")
1.6
>>> readout_value("Q10R")
1.52
>>> readout_value("F1R")
2.79
>>> readout_value("G24I")
1.43
>>> readout_value("N3S")
1.78
>>> readout_value("V16I")
1.57
>>> readout_value("R15I")
2.25
>>> readout_value("R12D")
1.19
>>> readout_value("V22N")
2.01
>>> readout_value("P19W")
1.63
>>> readout_value("R15N")
1.52
>>> readout_value("C9N")
2.18
>>> readout_value("F1G")
3.23
>>> readout_value("D6L")
1.97
>>> readout_value("V22T")
1.95
>>> readout_value("C9A")
2
>>> readout_value("T5C")
1.57
>>> readout_value("R4Y")
1.98
>>> readout_value("W13K")
3.05
>>> readout_value("F1W")
2
>>> readout_value("T5Y")
1.95
>>> readout_value("D6A")
1.7
>>> readout_value("R4D")
2.27
>>> readout_value("L21W")
1.91
>>> readout_value("K23T")
1.59
>>> readout_value("Q10D")
2.04
>>> readout_value("Q8L")
1.68
>>> readout_value("P19H")
2.22
>>> readout_value("L17D")
1.91

Data origin, for the record: the supplement of paper PMC10567573
